pKi: −log10 of the molar value.
D(3) dopamine receptor (Homo sapiens, UniProt P35462) pKi, compiled from various sources.
Sequence (P35462 whole entry): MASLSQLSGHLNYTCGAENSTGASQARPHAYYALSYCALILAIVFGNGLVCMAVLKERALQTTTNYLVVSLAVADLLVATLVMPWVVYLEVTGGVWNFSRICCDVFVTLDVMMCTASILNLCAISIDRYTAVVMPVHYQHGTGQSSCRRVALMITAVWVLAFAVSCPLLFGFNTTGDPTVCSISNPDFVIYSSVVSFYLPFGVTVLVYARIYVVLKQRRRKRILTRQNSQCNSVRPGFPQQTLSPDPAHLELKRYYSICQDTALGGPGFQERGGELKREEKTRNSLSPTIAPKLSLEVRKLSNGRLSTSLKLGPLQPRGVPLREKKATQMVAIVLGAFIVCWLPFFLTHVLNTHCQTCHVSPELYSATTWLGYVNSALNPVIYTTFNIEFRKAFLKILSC
Quantity Name: pKi

Some solved entries appear below for comparison.
Compound: Oc1ccc2c(c1)CCN1Cc3ccccc3CC21 (stereo unspecified)
pKi: 6.51

Compound: COc1ccc2c(c1)C1CN(Cc3ccccc3)CC1CO2 (stereo unspecified)
pKi: 7.10

Compound: COc1nc(NCCCN2CCOCC2)nc(OC)c1NC(=O)c1ccc(Oc2cc3c(cc2C)CCC3(C)C)o1
pKi: 5.93

a = Clc1cccc(N2CCN(CCCCNc3ccc(-c4ccccc4)cn3)CC2)c1Cl
b = COc1c(C(=O)NCCN2CCN(c3cccc(C(F)(F)F)c3)CC2)cc(Br)c2ccccc12
Enquiry: Lab notebook, comparison: a versus b , higher pKi goes to which? // caller expects the label of the chosen entry
Return: a

---

Consider the following Ki data for UniProt P35462, collected from several reports.
Quantity Name: Ki (nM)

Solved entries:
Compound: COc1cc2c(cc1O)CN(Cc1ccccc1CNC(=O)c1ccc(Br)cc1)CC2
Ki (nM): 160
//
Compound: Cc1cccc(N2CCN(CCCCNC(=O)[C@@H]3CCc4ccccc4N3)CC2)c1
Ki (nM): 159
//
Compound: COc1ccccc1N1CCN(CCCN2C(=O)CCc3ccccc32)CC1
Ki (nM): 100
//
Compound: O=C1CC(CN2CCC(c3noc4cc(F)ccc34)CC2)Cc2[nH]ncc21 (stereo not given)
Ki (nM): 186
//
Compound: COc1c(Cl)cccc1N1CCN(CCCCNC(=O)c2cc3ccccc3o2)CC1
Ki (nM): 0.907

A = Clc1ccc(-c2cc(C3CCN(Cc4ccccc4)C3)[nH]n2)cc1 (stereo not given)
B = COc1cc(CCNCCc2ccc(O)c3[nH]c(=O)ccc23)ccc1OCCCc1ccccc1
Enquiry: In the pair A and B , the larger recorded Ki belongs to which? Give the label of your selection.
Return: A
(A: 920 nM, B: 18 nM)

---

pKi: −log10 of the molar value.
Collected literature values of pKi measured for D(3) dopamine receptor (Homo sapiens, UniProt P35462).
Quantity Name: pKi

// known answers, use as guide
Compound: COc1ccccc1N1CCN(CCCCNC(=O)c2ccc(F)nc2)CC1
Quantity Name: pKi
Reported: 7.85
--
Compound: COc1cccc(/C=C/C(=O)N[C@H]2CC[C@H](CCN3Cc4ccc(C#N)cc4C3)CC2)c1
Quantity Name: pKi
Reported: 8.00
--
Compound: CCOCCn1cc(COc2ccc(CN3CCN(c4ccccc4OC)CC3)cc2OC)nn1
Quantity Name: pKi
Reported: 6.36
--
Compound: COc1ccccc1N1CCN(CCCCNC(=O)c2cc3ccc2CCc2ccc(cc2)CC3)CC1
Quantity Name: pKi
Reported: 9.31
--
Compound: COc1c(C(=O)NCCN2CCC(c3ccccc3)CC2)cc(Br)c2ccccc12
Quantity Name: pKi
Reported: 7.10

P = COc1ccccc1N1CCN(CCCCn2cc(-c3ccc4ccccc4c3)nn2)CC1
Q = COc1ccccc1N1CCN(CCCCNC(=O)/N=N/c2ccc(F)cc2)CC1
Enquiry: Could you please tell me which of these two has the higher pKi: P or Q ? Respond using the label that marks the chosen record.
Return: Q

---

Several reports have described Ki for D(3) dopamine receptor (Homo sapiens, UniProt P35462); a selection of those results is presented here.
Quantity Name: Ki (nM)

Molecule: O=C(c1cnn2ccccc12)N1CCN(c2ccc(Cl)cc2)CC1
Tested System: D(3) dopamine receptor (Homo sapiens, UniProt P35462)
Ki [nM]: 61000

a = N#Cc1ccc2c(c1)[C@H]1CN(Cc3ccccc3)C[C@@H]1CO2
b = CCN(CC)CCOc1ccccc1Cc1ccccc1
c = CCS(=O)(=O)c1ccc(OC)c(-c2ccc(CN3CCCCCC3c3ccccc3)[nH]2)c1 (stereo not given)
d = CN1CCCc2ccccc2Cc2cc(O)ccc2CC1
Enquiry: Reorder: Ki, max to min. List labels; respect the requested ordering.
Return: b, d, a, c
(b: 4670 nM, d: 776 nM, a: 2.51 nM, c: 1.26 nM)

---

Here, compounds appear alongside Ki reported for D(3) dopamine receptor (Homo sapiens) in the literature.
Quantity Name: Ki (nM)

Take a look at these entries with their results.
Compound: COc1ccccc1N1CCN(CCCCNC(=O)c2ccc(I)s2)CC1
Ki (nM): 2.4
//
Compound: CS(=O)(=O)c1ccc2c(c1)CCN(CC[C@H]1CC[C@H](NC(=O)/C=C/c3cccc(C#N)c3)CC1)CC2
Ki (nM): 2
//
Compound: Cc1cc2nc(C)c(CN3CCN(c4ccc(F)cc4)CC3)n2c(C)n1
Ki (nM): 22000

A = COc1ccc2c3c(c(=O)oc2c1)CN(Cc1ccc(Cl)cc1)CC3
B = Cc1ccc(C2CCN(Cc3ccc4c(c3)OCC(=O)N4)CC2)cc1
C = c1ccc(N2CCN(CC[C@H]3CC[C@H](Nc4ncccn4)CC3)CC2)cc1
D = COc1ccccc1N1CCN(CCCCCc2cn(-c3ccccc3)nn2)CC1
E = CCCN(CCC)[C@@H]1CCn2ccc(C=O)c2C1
Enquiry: List these items ordered by Ki, big to small. When ranking, write the labels in the order the request describes.
Return: A, E, B, C, D

I = CCCN1CCO[C@@H]2c3cc(C(=O)OCC)ccc3CC[C@H]21
II = COc1cccc(N2CCN(CCCCNC(=O)c3ccccn3)CC2)n1
Enquiry: Could you check which of I and II has a smaller value for Ki? # respond with the chosen item's label
Return: II
(II: 200 nM, I: 2630 nM)

---

pKi: −log10 of the molar value.
Multi-source literature compilation: pKi on D(3) dopamine receptor (Homo sapiens, UniProt P35462).
Quantity Name: pKi

See these solved cases before continuing.
Compound: CCCN1CCO[C@@H]2c3cc(C#N)ccc3CC[C@H]21
Tested System: D(3) dopamine receptor (Homo sapiens, UniProt P35462)
pKi: 7.40

Compound: O=C(NCCCCN1CCN(Cc2ccccc2)CC1)c1cc2ccccc2o1
Tested System: D(3) dopamine receptor (Homo sapiens, UniProt P35462)
pKi: 6.25

Compound: COc1cccc(N2CCN(CCCCNC(=O)c3cc4ccccc4cn3)CC2)c1
Tested System: D(3) dopamine receptor (Homo sapiens, UniProt P35462)
pKi: 8.03

Compound: COc1ccc2onc(N3CCN(CCCCNC(=O)c4cccc(-n5ccnc5)c4)CC3)c2c1
Tested System: D(3) dopamine receptor (Homo sapiens, UniProt P35462)
pKi: 5.26

Compound: Clc1ccc(N2CCN(Cc3cn4cc(Br)ccc4n3)CC2)cc1Cl
Tested System: D(3) dopamine receptor (Homo sapiens, UniProt P35462)
pKi: 6.00

P = c1ccc(CN2CC[C@@H](CNCc3csc(-c4ccccc4)n3)C2)cc1 (stereo in doubt; 4q)
Q = COc1ccccc1N1CCN(CCCNC(=O)NCc2ccccc2-c2ccc(F)cc2)CC1
R = Clc1cccc(N2CCN(CCCCOc3ccc4cccnc4c3)CC2)c1Cl
S = COc1cc2c(cc1O)CN(Cc1ccccc1CNC(=O)c1cccc(C#N)c1)CC2
T = FC(F)(F)c1nc2c(-[n+]3cc[n+](Cc4ccccc4)cc3)cccc2[nH]1
Enquiry: Order the records so the highest pKi appears first and the lowest last. Returns: the labels arranged in the requested order.
Return: R, T, S, Q, P
(R: 8.09, T: 7.83, S: 7.59, Q: 7.00, P: 6.18)

a = Clc1ccc(-c2cc(C3CCN(CC4CCCCC4)CC3)[nH]n2)cc1
b = CCN1[C@@H](c2ccc(-c3cc(S(=O)(=O)CC)ccc3OC)[nH]2)CC[C@H]1c1ccccc1
c = CS(=O)(=O)c1ccc2c(c1)CCN(CC[C@H]1CC[C@H](NC(=O)/C=C/c3ccc(F)cc3)CC1)CC2
d = Cc1ccc(OCCCNCCOc2ccc(C)cc2)cc1
e = N#Cc1ccc2c(c1)CCN(CC[C@H]1CC[C@H](NC(=O)c3cccc4ccccc34)CC1)CC2
Enquiry: Sort the 5 compounds by pKi; largest first, smallest last. Answer with the labels in sequence, matching the requested order.
Return: c, e, b, d, a
(c: 9.00, e: 7.70, b: 7.00, d: 6.63, a: 6.14)

---

The following compounds were reported with pKi values on D(3) dopamine receptor (Homo sapiens, UniProt P35462) in different studies.
pKi: −log10 of the molar value.
Quantity Name: pKi

Would you please look over these solved cases?
Compound: COc1cc2c(cc1OC)C1=NO[C@@H](CN3CCN(C/C=C/c4ccccc4)CC3)[C@@H]1CO2
Tested System: D(3) dopamine receptor (Homo sapiens, UniProt P35462)
pKi: 6.57

Compound: COc1ccc(N(Cc2ccc(F)cc2)NC(=O)NCCCN2CCN(c3ccccc3OC)CC2)cc1
Tested System: D(3) dopamine receptor (Homo sapiens, UniProt P35462)
pKi: 6.40

Compound: CCOC(=O)c1cc2cc(OCCCCN3CCN(c4cccc(Cl)c4Cl)CC3)ccn2n1
Tested System: D(3) dopamine receptor (Homo sapiens, UniProt P35462)
pKi: 8.68

Compound: COc1ccccc1N1CCN(Cc2cc(CN3CCN(c4ccccc4OC)CC3)c3cccccc2-3)CC1
Tested System: D(3) dopamine receptor (Homo sapiens, UniProt P35462)
pKi: 7.48

Compound: Cc1ccc2c(OCCN3CCC(Cc4cc5c(cc4F)OCC(=O)N5)CC3)cc(F)cc2n1
Tested System: D(3) dopamine receptor (Homo sapiens, UniProt P35462)
pKi: 6.30

I = COc1ccccc1N1CCN(CCCCc2cn(-c3ccc4c(c3)Cc3ccccc3-4)nn2)CC1
II = C(#Cc1cccn1C1CCN(Cc2ccccc2)CC1)c1ccccc1
Enquiry: Compare pKi: is it lower for I or for II ? // return label of chosen record
Return: II
